Below, each of the compounds is paired with its reported GI50 value.
# Test system: TK-10
# assayComment: NCI tumour cell line growth inhibition, 48 h
The source made the active and inactive calls. Cut-off read from the data, not from the text of the source: active = GI50 up to about 1.1 µM and inactive = higher.

Recorded GI50, per entry:
compound: N#Cc1ccc(NC(=O)C(CC(=O)OCc2ccccc2)NC(=O)OCc2ccccc2)cc1 (stereo not given)
GI50: > 10 µM (inactive)
//
compound: CN(C)CCNC(=O)c1cccc2ccc(-c3ccc(-c4ccccc4)cc3)nc12
GI50: 4.48 µM (inactive)
//
compound: O=C(ON=C1c2ccccc2C(Br)C(Br)c2ccccc21)c1ccccc1 (stereo not given)
GI50: 15.8 µM (inactive)
//
compound: O=C(CCN(CCO)CCO)Nc1ccc2c(c1)C(=O)c1ccc(NC(=O)CCN(CCO)CCO)cc1C2=O
GI50: 13.4 µM (inactive)

# input Item: CCOc1nc2sc3c(c2c(=O)n1CCSSCCn1c(OCC)nc2sc4c(c2c1=O)CCCC4)CCCC3 Test system: TK-10 Read-out: GI50 Value: ?
# output > 100 µM (inactive)

Numbers sourced from ChEMBL document CHEMBL1201862.
